Values of pKi for Somatostatin receptor type 5 (Homo sapiens, UniProt P35346), collected from a number of published sources:
pKi: −log10 of the molar value.
valueKind: pKi

// worked examples, pKi included
[
  {
    "lineNotation": "COc1cc(CN2CCC(Nc3nc4ccccc4o3)CC2)c(OC)c2ccccc12",
    "pKi": 6.10
  },
  {
    "lineNotation": "CN(C)CCCCn1c(SCCc2c[nH]c3ccccc23)nnc1-c1ccc2ccccc2c1",
    "pKi": 5.89
  },
  {
    "lineNotation": "CC(=O)N[C@@H]1CSSC[C@@H](C(=O)N[C@H](C(N)=O)[C@@H](C)O)NC(=O)[C@H](C(C)C)NC(=O)[C@H](CCCCN)NC(=O)[C@@H](Cc2c[nH]c3ccccc23)NC(=O)[C@H](Cc2ccc(O)cc2)NC1=O",
    "pKi": 6.00
  },
  {
    "lineNotation": "CCOc1cc(CN2CCC[C@H](NC(=O)c3cncc(C)c3)CC2)ccc1Cl",
    "pKi": 6.20
  },
  {
    "lineNotation": "N=C(N[C@H](Cc1c[nH]c2ccccc12)c1nc(-c2ccccc2)c[nH]1)c1ccc(OC(F)(F)F)cc1",
    "pKi": 5.95
  },
  {
    "lineNotation": "CC(C)[C@@H]1NC(=O)[C@H](CCCCN)NC(=O)[C@@H](Cc2c[nH]c3ccccc23)NC(=O)[C@H](Cc2ccccn2)NC(=O)[C@H](NC(=O)[C@@H](N)Cc2c(F)c(F)c(F)c(F)c2F)CSSC[C@@H](C(=O)N[C@@H](Cc2c(F)c(F)c(F)c(F)c2F)C(N)=O)NC1=O",
    "pKi": 6.04
  },
  {
    "lineNotation": "CCOc1cc(CN2CCC(NC(=O)c3ccc(NC)nc3)CC2)cc(OCC)c1F",
    "pKi": 7.74
  },
  {
    "lineNotation": "C[C@@H](O)CN1CCC(=O)N(Cc2ccccc2)CCC(=O)N(CCc2c[nH]c3ccccc23)CC(=O)N(CCCCN)CCC1=O",
    "pKi": 5.02
  }
]

[P] CC(=O)O[C@H]1[C@H](OC(C)=O)[C@@H](CCCCCN)N(Cc2cccc3ccccc23)C[C@@H]1OC(C)=O
[Q] Cc1cccc2c(CN3CCC(Nc4nc5ccccc5n4Cc4ccc(F)cc4)CC3)c[nH]c12
[R] CCOc1cc(CN2CCC(Nc3nc4cc(S(N)(=O)=O)ccc4o3)CC2)ccc1Cl
Hey, can you sort those compounds up there by pKi, smallest first? Form entry: ranked labels (order as requested).
P, Q, R
(P: 5.29, Q: 5.84, R: 7.77)

[P] CC(C)(C)[C@@H]1NC(=O)[C@H](CCCCN)NC(=O)[C@@H](Cc2c[nH]c3ccccc23)NC(=O)[C@H](Cc2cccnc2)NC(=O)[C@H](NC(=O)[C@H](N)Cc2ccc(Cl)cc2)CSSC[C@@H](C(=O)N[C@H](Cc2ccc(Cl)cc2)C(N)=O)NC1=O
[Q] C[C@@H](O)CN1CCC(=O)N(Cc2ccccc2)CCC(=O)N(CCc2c[nH]c3ccccc23)CCC(=O)N(CCCCN)CCC1=O
Which shows the larger pKi value: P or Q ? Please reply using the label of the selected record.
P
(P: 6.82, Q: 4.55)

[a] CCOc1cc(CN2CCC[C@@H](NC(=O)c3cncc(C)c3)CC2)ccc1C
[b] CCOc1cc(CN2CCC(NC(=O)c3ccc(N)nc3)CC2)cc(OCc2ccccc2)c1-c1ccc(F)cc1
Compare a and b and name the one whose reported pKi is smaller. Please reply using the label of the selected record.
a
(a: 7.66, b: 8.17)

[a] NCCCCC[C@@H]1[C@@H](O)[C@H](O)[C@@H](O)CN1Cc1cccc2ccccc12
[b] O=C(Nc1ccc(F)cc1F)N[C@H](Cc1c[nH]c2ccccc12)c1nc(-c2ccccc2)c[nH]1
[c] NCCCCn1c(SCCc2c[nH]c3ccccc23)nnc1-c1cccc(Br)c1
Order the items by recorded pKi; the first position goes to the largest value. Form entry: ranked labels (order as requested).
c, b, a

###

Values of pKi for UniProt P35346, collected from a number of published sources:
pKi: −log10 of the molar value.
valueKind: pKi

[
  {
    "compound": "CCOc1cc(CN2CCC(NC(=O)c3ccc(NC)nc3)CC2)cc(OCC)c1-c1ccccc1",
    "pKi": 8.16
  },
  {
    "compound": "CCOc1cc(CN2CCC(NC(=O)c3cncc(C)c3)CC2)cc(OCC)c1-c1ccccc1",
    "pKi": 8.27
  },
  {
    "compound": "NC[C@@H]1CCC[C@H](CNC(=O)[C@H](Cc2c[nH]c3ccccc23)NC(=O)N2CCC3(C=Cc4ccccc43)CC2)C1",
    "pKi": 5.35
  },
  {
    "compound": "NC/C=C/CO[C@H]1[C@H](O)[C@H](OCc2ccccc2)COC/C=C/c2cccc(O)c2C(=O)OC[C@@H]1NC(=O)Cc1c[nH]c2ccccc12",
    "pKi": 5.96
  },
  {
    "compound": "CCCOc1cc(CN2CCC(Nc3nc4ccccc4o3)CC2)ccc1OC",
    "pKi": 6.53
  },
  {
    "compound": "CC(C)[C@@H]1NC(=O)[C@H](CCCCN)NC(=O)[C@@H](Cc2c[nH]c3ccccc23)NC(=O)[C@H](Cc2ccc(O)cc2)NC(=O)[C@@H](NC(=O)[C@H](N)Cc2ccc3ccccc3c2)CSSC[C@H](C(=O)N[C@@H](Cc2ccc3ccccc3c2)C(N)=O)NC1=O (stereo in doubt; 23)",
    "pKi": 6.13
  },
  {
    "compound": "CC(C)[C@@H]1NC(=O)[C@H](CCCCN)NC(=O)[C@@H](Cc2c[nH]c3ccccc23)NC(=O)[C@H](Cc2cccnc2)NC(=O)[C@H](NC(=O)[C@@H](N)Cc2ccccc2F)CSSC[C@@H](C(=O)N[C@@H](Cc2ccccc2F)C(N)=O)NC1=O",
    "pKi": 5.80
  },
  {
    "compound": "CCOc1cc(CN2CCC(NC(=O)c3cccc(S(C)(=O)=O)c3)CC2)ccc1Cl",
    "pKi": 7.22
  }
]

[a] CC(C)[C@@H]1NC(=O)[C@H](CCCCN)NC(=O)[C@@H](Cc2c[nH]c3ccccc23)NC(=O)[C@H](Cc2cccnc2)NC(=O)[C@H](NC(=O)[C@@H](N)Cc2ccc3ccccc3c2)CSSC[C@@H](C(=O)N[C@@H](Cc2ccc3ccccc3c2)C(N)=O)NC1=O
[b] COc1cc(CN2CCC(Nc3nc4ccccc4n3Cc3ccc(F)cc3)CC2)c(OC)c2ccccc12
[c] CCOc1cc(CN2CCC(NC(=O)c3cncc(C)c3)CC2)ccc1C
[d] COc1cc(CN2CCC(Nc3nc4ccccc4s3)CC2)ccc1O
Order the items by recorded pKi; the first position goes to the largest value. Form entry: ranked labels (order as requested).
c, a, b, d

[a] CC(C)[C@@H]1NC(=O)[C@H](CCCCN)NC(=O)[C@@H](Cc2c[nH]c3ccccc23)NC(=O)[C@H](Cc2cccnc2)NC(=O)[C@H](NC(=O)[C@@H](N)Cc2cccc(F)c2)CSSC[C@@H](C(=O)N[C@@H](Cc2cccc(F)c2)C(N)=O)NC1=O
[b] NCCCC[C@@H]1NC(=O)[C@@H](Cc2c[nH]c3ccccc23)NC(=O)[C@H](Cc2cccnc2)NC(=O)[C@H](NC(=O)[C@@H](N)Cc2ccc3ccccc3c2)CSSC[C@@H](C(=O)N[C@@H](Cc2ccc3ccccc3c2)C(N)=O)NC(=O)CNC1=O
Compare a and b and name the one whose reported pKi is smaller. Please reply using the label of the selected record.
a
(a: 6.13, b: 6.42)

[I] CCOc1cc(CN2CCC(Nc3nc4ccccc4o3)CC2)ccc1OC(F)(F)F
[II] C[C@@H](c1c[nH]c2ccccc12)[C@H](C(=O)N(C)C[C@H]1OC[C@H](N)CO1)N1CCN(C2CCCN(c3ccccc3)C2)C1=O (some centres undefined)
Compare I and II and name the one whose reported pKi is smaller. Please reply using the label of the selected record.
II

###

Values of Ki for Somatostatin receptor type 5 (Homo sapiens), collected from a number of published sources:
valueKind: Ki (nM)

[
  {
    "compound": "CC(C)[C@@H]1NC(=O)[C@H](CCCCN)NC(=O)[C@@H](Cc2c[nH]c3ccccc23)NC(=O)[C@H](Cc2cccnc2)NC(=O)[C@H](NC(=O)[C@@H](N)Cc2ccc3ccccc3c2)CSSC[C@@H](C(=O)N[C@@H](Cc2ccc(F)cc2)C(N)=O)NC1=O",
    "unitAbbreviation": "nM",
    "Ki": 376
  }
]

[I] COc1cc(CN2CCC(Nc3nc4ccccc4s3)CC2)c(OC)c2ccccc12
[II] C[C@@H](O)[C@@H]1NC(=O)[C@H](CCCCN)NC(=O)[C@@H](Cc2c[nH]c3ccccc23)NC(=O)[C@@H](Cc2ccccn2)NC(=O)C(NC(=O)[C@@H](N)Cc2ccc(Cl)cc2)CSSCC(C(=O)N[C@@H](Cc2ccc3ccccc3c2)C(N)=O)NC1=O (stereo in doubt)
[III] CCOc1cc(CN2CCC(NC(=O)c3ccc(N)nc3)CC2)cc(OCC)c1-c1ccc(F)cc1
[IV] CC(C)[C@@H]1NC(=O)[C@H](CCCCN)NC(=O)[C@@H](Cc2c[nH]c3ccccc23)NC(=O)[C@H](Cc2ccc(O)cc2)NC(=O)[C@H](NC(=O)[C@@H](N)Cc2ccc3ccccc3c2)CSSC[C@@H](C(=O)N[C@H](Cc2ccc3ccccc3c2)C(N)=O)NC1=O
Hey, can you sort those compounds up there by Ki, smallest first? Form entry: ranked labels (order as requested).
III, II, I, IV

[P] CC(C)[C@H]1NC(=O)[C@H](CCCCN)NC(=O)[C@@H](Cc2c[nH]c3ccccc23)NC(=O)[C@H](Cc2c[nH]cn2)NC(=O)C(NC(=O)[C@@H](N)Cc2cccc(F)c2)CSSCC(C(=O)N[C@@H](Cc2cccc(F)c2)C(N)=O)NC1=O (stereo in doubt)
[Q] CC(C)[C@H]1NC(=O)[C@H](CCCCN)NC(=O)[C@@H](Cc2c[nH]c3ccccc23)NC(=O)[C@H](Cc2c[nH]cn2)NC(=O)C(NC(=O)[C@@H](N)Cc2ccc(F)cc2)CSSCC(C(=O)N[C@@H](Cc2ccc(F)cc2)C(N)=O)NC1=O (stereo in doubt)
Compare P and Q and name the one whose reported Ki is smaller. Please reply using the label of the selected record.
Q
(Q: 173 nM, P: 734 nM)
